Target or system Amine oxidase [flavin-containing] B (Homo sapiens, UniProt P27338); metric pIC50; compiled from varied reports.
Molecular target: Amine oxidase [flavin-containing] B (Homo sapiens, UniProt P27338)
Sequence (P27338 whole entry): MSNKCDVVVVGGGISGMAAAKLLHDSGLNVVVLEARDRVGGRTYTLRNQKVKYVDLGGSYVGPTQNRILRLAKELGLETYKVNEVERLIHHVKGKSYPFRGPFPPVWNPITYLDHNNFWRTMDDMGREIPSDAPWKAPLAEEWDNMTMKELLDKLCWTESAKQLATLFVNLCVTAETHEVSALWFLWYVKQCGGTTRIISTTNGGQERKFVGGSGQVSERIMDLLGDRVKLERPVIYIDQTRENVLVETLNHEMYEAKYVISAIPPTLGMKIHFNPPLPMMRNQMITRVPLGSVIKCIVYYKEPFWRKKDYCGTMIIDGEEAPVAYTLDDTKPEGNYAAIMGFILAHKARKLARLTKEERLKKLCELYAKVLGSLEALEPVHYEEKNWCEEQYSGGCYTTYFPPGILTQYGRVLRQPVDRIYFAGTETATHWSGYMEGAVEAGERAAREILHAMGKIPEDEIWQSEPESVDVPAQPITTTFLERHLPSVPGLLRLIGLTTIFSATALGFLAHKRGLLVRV
# pIC50 = -log10(concentration in molar units)

Read the entry O=C1CCCc2ccc(OCc3cccc(Cl)c3)cc21 and write its reported pIC50.
8.40

Read the entry O=c1ccoc2cc(OCCCc3ccccc3)ccc12 and write its reported pIC50.
6.92

Read the entry Cc1cccc(COc2ccc3c(=O)ccoc3c2)c1 and write its reported pIC50.
7.21

Read the entry O=c1cc(-c2ccc(Cl)cc2)oc2ccc(Cn3cc(CNc4ccc(Cl)cc4)nn3)cc12 and write its reported pIC50.
3.88

Read the entry O=C1CCCc2ccc(OCc3cccc(C(F)(F)F)c3)cc21 and write its reported pIC50.
8.42

Read the entry O=C1NC(=O)c2cc(SCc3ccc(Cl)cc3)ccc21 and write its reported pIC50.
6.34

Read the entry O=C(CCc1cn(Cc2ccc3oc(-c4ccccc4)cc(=O)c3c2)nn1)Nc1ccccc1 and write its reported pIC50.
3.91

Read the entry O=C(NCc1cn(Cc2ccc3oc(-c4ccccc4)cc(=O)c3c2)nn1)c1ccccc1 and write its reported pIC50.
3.96

Read the entry O=C(CCc1cn(Cc2ccc3oc(-c4ccccc4)cc(=O)c3c2)nn1)Nc1ccc(F)cc1 and write its reported pIC50.
3.87

Read the entry O=C1/C(=C/c2cccnc2Cl)Cc2ccccc21 and write its reported pIC50.
6.33
